System tested: Insulin receptor (IR) (Homo sapiens, UniProt P06213-2;P06213-2 P06213-2:28-746,P06213-2:751-944)
Sequence (P06213 other isoform, or with tags, fused parts or gaps, chain 1 of 2): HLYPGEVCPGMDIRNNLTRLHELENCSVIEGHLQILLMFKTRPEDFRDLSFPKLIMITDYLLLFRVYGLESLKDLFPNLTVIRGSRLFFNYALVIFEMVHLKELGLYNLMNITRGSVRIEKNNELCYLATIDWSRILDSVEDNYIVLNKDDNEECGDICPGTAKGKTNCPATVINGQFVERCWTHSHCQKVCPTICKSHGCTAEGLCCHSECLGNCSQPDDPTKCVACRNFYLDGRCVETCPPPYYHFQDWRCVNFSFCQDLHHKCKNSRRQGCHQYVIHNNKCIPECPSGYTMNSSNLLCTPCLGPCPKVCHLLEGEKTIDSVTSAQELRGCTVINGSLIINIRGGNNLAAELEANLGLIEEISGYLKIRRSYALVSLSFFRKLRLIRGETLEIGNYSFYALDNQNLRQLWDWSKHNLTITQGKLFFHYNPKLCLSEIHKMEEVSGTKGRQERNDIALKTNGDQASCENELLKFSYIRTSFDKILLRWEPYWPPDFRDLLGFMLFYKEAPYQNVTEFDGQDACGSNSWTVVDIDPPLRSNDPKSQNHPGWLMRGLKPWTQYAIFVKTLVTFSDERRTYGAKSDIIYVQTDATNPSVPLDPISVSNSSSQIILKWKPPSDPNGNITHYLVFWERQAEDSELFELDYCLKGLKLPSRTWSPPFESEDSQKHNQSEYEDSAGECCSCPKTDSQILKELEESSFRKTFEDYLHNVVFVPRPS
Sequence (P06213 763-956, chain 2 of 2): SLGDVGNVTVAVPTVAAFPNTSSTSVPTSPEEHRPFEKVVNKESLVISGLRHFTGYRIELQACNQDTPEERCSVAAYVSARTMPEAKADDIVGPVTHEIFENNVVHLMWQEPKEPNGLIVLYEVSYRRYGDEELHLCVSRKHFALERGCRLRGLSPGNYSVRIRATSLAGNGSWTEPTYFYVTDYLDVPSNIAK
Protocol description: FP; placeholder
Stated conditions: tags: His-tagged; R&D Systems Cat# 1544-IR; chain copies: 2; label: 5'-32P
Result type: Kd

>>> experimental_result("IR-6 (ssDNA) DNA: GAGTGACCGTCTGCCTGTGGGTACAGTCTTTAGCTTACACAGGCTCCTGAAGACGCACAGCCACACCACCAGCC")
"4.6 nM"
